System: BDNF-induced nuclear Arc expression in primary cortical neurons
Assay: Chemogenomic screen: high-content image-based assay of BDNF-induced nuclear Arc expression (96-well)
Assay type: cell-based, mouse
Experimental Context: nuclear Arc-positive cells relative to DMSO + BDNF control; negative values = decrease
Listed here are compounds together with their documented Fold-change — Normalized to DMSO control (BDNF).
Give the value in fold but do not write fold after it.

Find Fold-change — Normalized to DMSO control (BDNF) (BDNF-induced nuclear Arc expression in primary cortical neurons) for the entry CCC(C)C(CC)C(N)=O (stereo not drawn) [Valnoctamide]
1.3

Find Fold-change — Normalized to DMSO control (BDNF) (BDNF-induced nuclear Arc expression in primary cortical neurons) for the entry O=C1c2ccccc2S(=O)(=O)N1CCCCN1CCN(c2ncccn2)CC1 [Ipsapirone]
1.4

Find Fold-change — Normalized to DMSO control (BDNF) (BDNF-induced nuclear Arc expression in primary cortical neurons) for the entry COc1ccc(C2CNC(=O)C2)cc1OC1CCCC1 (stereo not drawn) [Rolipram]
1.1

Find Fold-change — Normalized to DMSO control (BDNF) (BDNF-induced nuclear Arc expression in primary cortical neurons) for the entry CCC1(C)CC(=O)NC1=O (stereo not drawn) [Ethosuximide]
1.1

Find Fold-change — Normalized to DMSO control (BDNF) (BDNF-induced nuclear Arc expression in primary cortical neurons) for the entry CCN[C@H]1CN(CCCOC)S(=O)(=O)c2sc(S(N)(=O)=O)cc21 [Brinzolamide]
1.5

Now for the compound whose Fold-change — Normalized to DMSO control (BDNF) we want.
Find Fold-change — Normalized to DMSO control (BDNF) (BDNF-induced nuclear Arc expression in primary cortical neurons) for the entry Nc1ccn([C@@H]2O[C@H](CO)[C@@H](O)[C@H]2O)c(=O)n1 [Cytidine]
1.8
